Cited source: PubChem BioAssay (Tox21)

protocol.text: A CellTox Green Cytotoxicity Assay to monitor cytotoxicity in HepG2 cells - 40 hour (AID 1224879); also: nearly all actives have a fitted effect of over 40% in size; also: potency is read from the fitted curve at half-maximal effect
recorded.conditions: CellTox Green fluorescence; series mostly up to 76.8 µM
Results filed as inconclusive are left out. The source made the active and inactive calls. Calls follow the shape of the dose curve; as a rule, active = well fitted activation curve with a large enough effect in the repeat runs; inconclusive = weak or mixed curves; inactive = flat fitted curve, though single readings scatter.
readout.type: Potency

Solved cases (5 shown):
{"smiles.text": "CCCCCCCC/C=C/CCCCCCCC1=NCCN1CCO", "Potency": "12.3 µM (active)"}
{"smiles.text": "Oc1ccc2c(c1)-c1ccccc1C2", "Potency": "49 µM (active)"}
{"smiles.text": "CN(C)[C@@H]1C(=O)C(C(N)=O)=C(O)[C@@]2(O)C(=O)C3=C(O)c4c(O)ccc(Cl)c4[C@@H](O)[C@H]3C[C@@H]12", "Potency": "inactive"}
{"smiles.text": "Cc1ccc(-n2nc(C(C)(C)C)cc2NC(=O)Nc2ccc(OCCN3CCOCC3)c3ccccc23)cc1", "Potency": "inactive"}
{"smiles.text": "CCC1=C[C@@H]2CN(C1)Cc1c([nH]c3ccccc13)[C@@](C(=O)OC)(c1cc3c(cc1OC)N(C)[C@H]1[C@@](O)(C(=O)OC)[C@H](OC(C)=O)[C@]4(CC)C=CCN5CC[C@]31[C@@H]54)C2", "Potency": "inactive"}

Next:
Q) Which Potency value belongs to CCCC(c1cc(C(C)(C)C)c(O)cc1C)c1cc(C(C)(C)C)c(O)cc1C ?
A) 31.3 µM (active)

---

target.or.system: Cytochrome P450 3A4 (Homo sapiens) (UniProt P08684)
Sequence (P08684 whole entry, looked up): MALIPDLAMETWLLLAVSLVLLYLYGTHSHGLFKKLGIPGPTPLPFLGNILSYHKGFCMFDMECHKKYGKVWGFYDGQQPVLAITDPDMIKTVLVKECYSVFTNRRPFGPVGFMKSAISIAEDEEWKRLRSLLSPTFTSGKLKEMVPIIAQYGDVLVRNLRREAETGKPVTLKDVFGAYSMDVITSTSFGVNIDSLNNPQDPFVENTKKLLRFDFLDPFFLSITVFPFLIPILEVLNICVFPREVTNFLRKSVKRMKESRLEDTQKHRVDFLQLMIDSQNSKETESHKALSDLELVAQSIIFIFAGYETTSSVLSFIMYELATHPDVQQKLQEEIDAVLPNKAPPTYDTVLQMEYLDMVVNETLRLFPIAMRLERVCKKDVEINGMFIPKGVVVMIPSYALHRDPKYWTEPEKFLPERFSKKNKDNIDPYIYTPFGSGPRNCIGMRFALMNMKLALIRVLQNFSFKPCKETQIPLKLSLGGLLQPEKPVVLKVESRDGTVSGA
protocol.text: Cytochrome P450 Family 3 Subfamily A Member 4 (CYP3A4) small molecule antagonists: luciferase reporter qHTS assay (AID 1671201); also: nearly all actives have a fitted effect of over 50% in size
recorded.conditions: P450-Glo CYP3A4 enzyme, luciferin luminescence, 1 h; series mostly up to 115 µM
Records with an inconclusive call do not appear. Active and inactive are the calls of the source. Calls follow the shape of the dose curve; as a rule, active = well fitted inhibition curve with a large enough effect in the repeat runs; inconclusive = weak or mixed curves; inactive = no such curve, though single readings can be large or run the other way.
Please reply with one of these outcomes: label 1 = active, label 0 = inactive

{"molecule": "O=C1C=CC(=O)N1", "answer.label": "label 0"}
{"molecule": "Fc1ccc(C(c2ccc(F)cc2)N2CCN(C/C=C/c3ccccc3)CC2)cc1", "answer.label": "label 0"}
{"molecule": "CCC(C)(C)C1CCCCC1OC(C)=O (centres undefined)", "answer.label": "label 0"}
{"molecule": "CCCCCCCCCCCCCCCS(=O)(=O)Oc1ccccc1", "answer.label": "label 0"}
{"molecule": "Cc1cc(C2CCCCC2)n(O)c(=O)c1", "answer.label": "label 0"}
{"molecule": "CN(C)c1ccc(C2(c3ccc(N(C)C)cc3)OC(=O)c3cc(N(C)C)ccc32)cc1", "answer.label": "label 1"}
{"molecule": "CCOC(=O)c1nc(C(Cl)(Cl)Cl)n(-c2ccc(Cl)cc2Cl)n1", "answer.label": "label 0"}
{"molecule": "C=C(C)C(=O)OCC[N+](C)(C)C", "answer.label": "label 0"}
{"molecule": "O=C(O)c1cc(O)c2c(c1)C(=O)c1cccc(O)c1C2=O", "answer.label": "label 0"}
{"molecule": "CCCCN1C(=O)[C@@H]([C@H](O)C2CCCCC2)NC(=O)C12CCN(Cc1ccc(Oc3ccc(C(=O)O)cc3)cc1)CC2", "answer.label": "label 1"}

Then there is this molecule:
Q) I'd appreciate the recorded outcome for C=C(C)C(=O)OCC(O)COc1ccc(C(C)(C)c2ccc(OCC(O)COC(=O)C(=C)C)cc2)cc1 (centres undefined) from this test.
A) label 0
